target: fibroblast activation protein (murine FAP, mFAP) (Mus musculus)
Sequence (P97321 whole entry): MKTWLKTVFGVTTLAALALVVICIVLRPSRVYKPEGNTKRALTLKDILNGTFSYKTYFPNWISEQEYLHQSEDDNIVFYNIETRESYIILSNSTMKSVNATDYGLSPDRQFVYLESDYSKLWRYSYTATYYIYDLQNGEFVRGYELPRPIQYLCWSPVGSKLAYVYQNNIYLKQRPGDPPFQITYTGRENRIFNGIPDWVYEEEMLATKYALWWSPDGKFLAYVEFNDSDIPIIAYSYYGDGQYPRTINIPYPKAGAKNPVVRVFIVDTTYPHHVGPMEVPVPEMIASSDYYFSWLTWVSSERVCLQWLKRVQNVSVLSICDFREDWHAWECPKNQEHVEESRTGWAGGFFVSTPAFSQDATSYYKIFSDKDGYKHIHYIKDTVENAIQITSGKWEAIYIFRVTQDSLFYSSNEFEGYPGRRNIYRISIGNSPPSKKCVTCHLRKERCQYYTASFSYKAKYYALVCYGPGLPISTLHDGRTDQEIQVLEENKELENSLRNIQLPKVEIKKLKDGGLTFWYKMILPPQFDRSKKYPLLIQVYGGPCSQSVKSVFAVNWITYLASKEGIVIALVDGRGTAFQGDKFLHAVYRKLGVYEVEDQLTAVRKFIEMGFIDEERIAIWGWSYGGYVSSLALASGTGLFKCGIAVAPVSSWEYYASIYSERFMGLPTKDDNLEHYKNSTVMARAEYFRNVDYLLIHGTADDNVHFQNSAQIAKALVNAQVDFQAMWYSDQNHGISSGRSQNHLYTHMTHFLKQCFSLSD
measure name: IC50

INSERT INTO measurements (molecule, assay_target, result) VALUES
  ('N#C[C@@H]1CCCN1C(=O)CNC(=S)Nc1ccc(CNC(=O)CCC2C(=O)[O][Ga]3[O]C(=O)CN4CCN(CCN2CC4)CC(=O)[O]3)cc1 (stereo partly shown) [[^natGa]MHLL1]', 'fibroblast activation protein (murine FAP, mFAP) (Mus musculus)', '142 nM');

* * *

target: fibroblast activation protein (human FAP, hFAP) (Homo sapiens); test: displacement of […]MHLL1 by cold compound in hFAP-transfected HT1080 cells (internalized activity); wild-type cells negative
Sequence (Q12884 whole entry): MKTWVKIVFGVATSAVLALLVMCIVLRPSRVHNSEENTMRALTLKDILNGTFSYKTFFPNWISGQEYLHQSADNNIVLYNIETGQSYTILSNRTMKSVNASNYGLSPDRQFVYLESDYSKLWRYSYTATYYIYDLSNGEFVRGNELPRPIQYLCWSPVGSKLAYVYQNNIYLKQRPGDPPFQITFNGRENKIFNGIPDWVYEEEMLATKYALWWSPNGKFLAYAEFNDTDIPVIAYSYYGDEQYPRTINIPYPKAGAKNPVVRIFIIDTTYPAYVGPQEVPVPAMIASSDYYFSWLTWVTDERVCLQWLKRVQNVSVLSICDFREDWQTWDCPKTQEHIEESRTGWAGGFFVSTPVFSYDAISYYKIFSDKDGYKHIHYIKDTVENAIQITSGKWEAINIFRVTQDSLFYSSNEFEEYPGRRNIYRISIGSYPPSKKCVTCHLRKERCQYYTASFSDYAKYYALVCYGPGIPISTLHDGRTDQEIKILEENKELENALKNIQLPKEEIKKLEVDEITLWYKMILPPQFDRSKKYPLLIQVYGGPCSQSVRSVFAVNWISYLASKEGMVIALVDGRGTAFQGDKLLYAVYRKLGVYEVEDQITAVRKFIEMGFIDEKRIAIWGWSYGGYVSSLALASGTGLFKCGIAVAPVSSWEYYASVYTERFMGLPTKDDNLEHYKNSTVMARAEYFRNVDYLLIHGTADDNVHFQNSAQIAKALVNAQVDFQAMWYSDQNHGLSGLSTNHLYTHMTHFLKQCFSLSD
measure name: IC50 (nM)

INSERT INTO assay_data (compound, assay_target, readout_number) VALUES
  ('N#C[C@@H]1CCCN1C(=O)CNC(=S)Nc1ccc(CNC(=O)CCC2C(=O)[O][Ga]3[O]C(=O)CN4CCN(CCN2CC4)CC(=O)[O]3)cc1 (stereo partly shown) [[^natGa]MHLL1]', 'fibroblast activation protein (human FAP, hFAP) (Homo sapiens)', 212);

Every entry's value here was drawn from paper PMC8315078.
